tested on: HUVEC; test: Inhibition of VEGF-induced proliferation of HUVEC cells; format: functional, cell-based; settings: Homo sapiens
endpoint-label: IC50 (µM)

1) CNC(=O)N1CCOc2cc(Oc3ccnc4cc(OC)c(OC)cc34)ccc21	0.1
2) COc1cc2nccc(Oc3ccc4c(c3)OCCN4C(=O)Nc3cccc(Cl)c3)c2cc1OC	0.0004
3) COc1cc2nccc(Oc3ccc4c(c3)OCCN4C(=O)NCc3ccc(C)cc3)c2cc1OC	0.36

* * *

Each entry below carries its recorded Cmax.
assay: Cmax in Sprague-Dawley rat at 2 mg/kg, po; format: ADME, organism-based; parameters: dose 2 mg/kg, route oral; details: in vivo
endpoint-label: Cmax (ng/mL)

1) COc1cc2nccc(Oc3ccc4c(c3)OCCN4C(=O)Nc3ccc(Cl)cc3)c2cc1OC	810
2) COc1cc2nccc(Oc3ccc4c(c3)OCCN4C(=O)Nc3ccc(C)cc3)c2cc1C(N)=O	160
3) COc1cc2nccc(Oc3ccc4c(c3)OCCN4C(=O)Nc3ccc(C)cc3)c2cc1OC	300
4) COc1cc2nccc(Oc3ccc4c(c3)OCCN4C(=O)Nc3ccc(F)cc3)c2cc1OC	410
5) COc1cc2nccc(Oc3ccc4c(c3)OCCN4C(=O)Nc3ccc(Cl)cc3)c2cc1C(N)=O	820
